System: HIV in the HTLV-1 transformed cell line MT-4
Run description: organism not typed
Assay type: cell-based
Assay conditions: MT-4 cells; luciferase/cell titer glo readout after 96 hours; 10 point dose response
// reported pIC50 per item
pIC50 is defined as minus the log10 of a concentration measured in mol/L.

# annotated cases, reported pIC50 shown
{"columns": ["Compound", "Value measured"],
 "data": [
  ["Cc1ccc(-c2c(C)c3c(c(C)c2[C@H](OC(C)(C)C)C(=O)O)CN(C(=O)N2CCCCC2)C3)c(Cl)c1 [Example 322]", 8.30],
  ["Cc1c(-c2c(C)c3c(c(C)c2[C@H](OC(C)(C)C)C(=O)O)CN(C(=O)c2cccc(F)c2)C3)ccc2c1NCCO2 [Example 303]", 8.30],
  ["COC1CCCC(C(=O)N2Cc3c(C)c(-c4ccc(C)cc4)c([C@H](OC(C)(C)C)C(=O)O)c(C)c3C2)C1 (some centres unmarked) [Example 245]", 7.59],
  ["Cc1ccc(-c2c(C)c3c(c(C)c2C(OC(C)(C)C)C(=O)O)CN(S(=O)(=O)c2cccc4ccccc24)C3)cc1 (centres unmarked) [Example 5]", 7.38]
]}

Next compound, pIC50 to be filled in.
HIV in the HTLV-1 transformed cell line MT-4 / pIC50 / Cc1ccc(-c2c(C)c3c(c(C)c2[C@H](OC(C)(C)C)C(=O)O)CN(C(=O)c2nccn2C)C3)cc1 [Example 238] : value?
6.03

###

System: HIV in the HTLV-1 transformed cell line MT-4
Run description: organism not typed
Type: cell-based
Assay conditions: MT4, 96 h, MT-4 cells; luciferase/cell titer glo readout after 96 hours; 10 point dose response
// reported IC50 per item
Provide only the numeric value, understood in nM.

{"columns": ["Compound", "Uom", "IC50"],
 "data": [
  ["Cc1ccc(-c2c(C)c3c(c(C)c2[C@H](OC(C)(C)C)C(=O)O)CN(C(=O)c2cccc4sccc24)C3)cc1", "nM", 27],
  ["Cc1cccc(F)c1C(=O)N1Cc2c(C)c(-c3cc(F)c4c(c3C)CCCO4)c([C@H](OC(C)(C)C)C(=O)O)c(C)c2C1 (atropisomer, axis not shown; (M))", "nM", 4]
]}

// query IC50 value for entry Cc1c(-c2c(C)c3c(c(C)c2[C@H](OC(C)(C)C)C(=O)O)CN(C(=O)N2CCCC(F)(F)C2)C3)cc(F)c2c1CCCO2 (atropisomer, axis not shown)
2

Entry to check: Cc1c(-c2c(C)c3c(c(C)c2[C@H](OC(C)(C)C)C(=O)O)CN(C(=O)c2cccc4c2OCO4)C3)cc(F)c2c1CCCO2 (atropisomer, axis not shown; (M))
2

Entry to check: Cc1c(-c2c(C)c3c(c(C)c2[C@H](OC(C)(C)C)C(=O)O)CN(C(=O)c2cc(F)c(F)c(Cl)c2)C3)cc(F)c2c1CCCO2 (atropisomer, axis not shown; (M))
11

Entry to check: `Cc1ccc(-c2c(C)c3c(c(C)c2[C@H](OC(C)(C)C)C(=O)O)CN(C(=O)c2cc(F)cc(C(=O)O)c2)C3)cc1`
3460

Entry to check: `Cc1ccc(-c2c(C)c3c(c(C)c2[C@H](OC(C)(C)C)C(=O)O)CN(C(=O)N2CC[C@H](F)C2)C3)cc1`
4

Entry to check: Cc1ccc(-c2c(C)c3c(c(C)c2[C@H](OC(C)(C)C)C(=O)O)CN(C(=O)NC2CCC(C)CC2)C3)cc1 (stereo partly drawn)
288

Entry to check: `Cc1ccc(-c2c(C)c3c(c(C)c2[C@H](OC(C)(C)C)C(=O)O)CNC3)cc1`
1090

Entry to check: `Cc1c(-c2c(C)c3c(c(C)c2[C@H](OC(C)(C)C)C(=O)O)CN(C(=O)c2cccc4c2OCO4)C3)cc(F)c2c1NCCO2`
18

Entry to check: Cc1ccccc1C(=O)N1Cc2c(C)c(-c3cc(F)c4c(c3C)CCCO4)c([C@H](OC(C)(C)C)C(=O)O)c(C)c2C1 (atropisomer, axis not shown; (M))
3

Entry to check: `Cc1ccc(-c2c(C)c3c(c(C)c2[C@H](OC(C)(C)C)C(=O)O)CN(C(=O)c2ccccn2)C3)cc1`
4
